Entry source: patent US20020028938A1

molecular target: recombinant human Cox-1 (r-hu Cox1) (Homo sapiens); construct: made in house; host or cells: baculovirus/Sf9 insect cells (microsomes); experiment: Recombinant human PGHS-1 enzyme assay (RHUCX1); format: biochemical; settings: 1 μM; read-out: RHUCX1 % Inh. at Dose
measuredQuantity: inhibition at 1 µM (%)
Answer with a number only, understood to be in %.

INSERT INTO assay_data (molecule, measuredquantity, datavalue) VALUES
  ('CS(=O)(=O)c1ccc(-c2cnn(C=C(F)C(F)(F)C(F)(F)F)c(=O)c2-c2ccc(F)cc2)cc1', 'inhibition at 1 µM', 69),
  ('Cc1ccc(-c2c(-c3ccc(S(N)(=O)=O)cc3)cnn(-c3ccc(F)c(F)c3)c2=O)cc1F', 'inhibition at 1 µM', 47);

Request: What does the record list as inhibition at 1 µM for NS(=O)(=O)c1ccc(-c2cnn(CC(F)(F)F)c(=O)c2-c2ccc(Cl)c(F)c2)cc1 ?
Response: 37

Request: Please give the result for CS(=O)(=O)c1ccc(-c2cnn(-c3ccc(Cl)s3)c(=O)c2-c2ccc(Cl)cc2)cc1 too.
Response: 65

Request: Please give the result for NS(=O)(=O)c1ccc(-c2cnn(Cc3ccc(F)c(F)c3)c(=O)c2-c2ccc(F)cc2)cc1 too.
Response: 30

###

target: recombinant human Cox-1 (r-hu Cox1) (Homo sapiens); construct: made in house; host or cells: baculovirus/Sf9 insect cells (microsomes); assay: Recombinant human PGHS-1 enzyme assay (RHUCX1); type: biochemical; settings: 100 μM; read-out: RHUCX1 % Inh. at Dose
Label Satisfied when inhibition at 100 µM >= 5%; otherwise Not satisfied.

Worked examples follow.
INSERT INTO assay_data (molecule, category) VALUES
  ('COC(Cn1ncc(-c2ccc(S(C)(=O)=O)cc2)c(-c2ccc(F)cc2)c1=O)c1ccccc1 (stereo not drawn) [Example 442]', 'Satisfied'),
  ('CS(=O)(=O)c1ccc(-c2cnn(Cc3ccc(F)cc3)c(=O)c2-c2ccc(F)cc2)cc1 [Example 20]', 'Satisfied'),
  ('CC(=O)CCOc1c(-c2ccc(S(C)(=O)=O)cc2)cnn(-c2ccc(F)c(F)c2)c1=O [Example 467]', 'Not satisfied'),
  ('CS(=O)(=O)c1ccc(-c2cnn(Cc3ccccc3C(F)(F)F)c(=O)c2-c2ccc(F)cc2)cc1 [Example 25]', 'Not satisfied');

Request: In plain terms: is recorded inhibition at 100 µM at least 5% for CS(=O)(=O)c1ccc(-c2cnn(-c3ccc(F)cc3)c(=O)c2-c2ccc(F)cc2)cc1 [Example 62] ?
Response: Satisfied

Request: Please give the result for CC(C)CCCc1c(-c2ccc(S(C)(=O)=O)cc2)cnn(-c2ccc(F)c(F)c2)c1=O [Example 444] too.
Response: Not satisfied

Request: Please give the result for CC1(COc2c(-c3ccc(S(C)(=O)=O)cc3)cnn(CC(F)(F)F)c2=O)CC1 [Example 279] too.
Response: Not satisfied

Request: Please give the result for CS(=O)(=O)c1ccc(-c2cnn(CC(F)(F)F)c(=O)c2-c2ccc(F)cc2)cc1 [Example 34] too.
Response: Satisfied

###

target: recombinant human Cox-2 (r-hu Cox-2) (Homo sapiens, UniProt P35354); construct: made in house; host or cells: baculovirus/Sf9 insect cells (microsomes); experiment: Recombinant human PGHS-2 enzyme assay (RHUCX2); assay type: biochemical; conditions: 0.01 μM; read-out: RHUCX2 % Inh. at Dose
Sequence (P35354 18-604): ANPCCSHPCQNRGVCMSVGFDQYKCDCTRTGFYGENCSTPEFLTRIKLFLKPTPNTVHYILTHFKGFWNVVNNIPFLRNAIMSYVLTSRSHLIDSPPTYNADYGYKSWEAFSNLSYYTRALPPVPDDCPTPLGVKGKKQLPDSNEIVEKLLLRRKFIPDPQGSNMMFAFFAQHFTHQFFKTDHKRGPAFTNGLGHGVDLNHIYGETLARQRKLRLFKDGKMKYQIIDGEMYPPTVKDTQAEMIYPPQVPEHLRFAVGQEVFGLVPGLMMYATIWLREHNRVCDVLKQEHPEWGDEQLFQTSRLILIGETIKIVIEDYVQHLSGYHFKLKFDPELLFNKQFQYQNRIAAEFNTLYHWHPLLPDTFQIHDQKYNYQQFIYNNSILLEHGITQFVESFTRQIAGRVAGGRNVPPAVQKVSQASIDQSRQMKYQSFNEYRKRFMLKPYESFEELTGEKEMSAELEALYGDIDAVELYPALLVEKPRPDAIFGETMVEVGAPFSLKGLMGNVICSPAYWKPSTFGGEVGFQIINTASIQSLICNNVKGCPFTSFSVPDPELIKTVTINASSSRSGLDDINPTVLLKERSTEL
measuredQuantity: inhibition at 0.01 µM (%)
Answer with a number only, understood to be in %.

INSERT INTO assay_data (querysmiles, readoutunits, datavalue) VALUES
  ('CC(C)COc1c(-c2ccc(S(N)(=O)=O)cc2)cnn(-c2ccc(F)c(F)c2)c1=O', '%', 36),
  ('Cc1ccc(-c2c(-c3ccc(S(N)(=O)=O)cc3)cnn(-c3ccc(F)c(F)c3)c2=O)cc1F', '%', 58);

Shift focus to the following entry.
Request: What does the record list as inhibition at 0.01 µM for CC(C)CCc1c(-c2ccc(S(N)(=O)=O)cc2)cnn(-c2ccc(F)c(F)c2)c1=O ?
Response: 57

###

molecular target: Human Whole Platelet Cyclooxygenase-1 (Homo sapiens, UniProt P23219); assay: Human Whole Platelet Cyclooxygenase-1 assay (HWPX); conditions: read-out: HWPX IC50 (parenthetical value)
Sequence (P23219 24-599): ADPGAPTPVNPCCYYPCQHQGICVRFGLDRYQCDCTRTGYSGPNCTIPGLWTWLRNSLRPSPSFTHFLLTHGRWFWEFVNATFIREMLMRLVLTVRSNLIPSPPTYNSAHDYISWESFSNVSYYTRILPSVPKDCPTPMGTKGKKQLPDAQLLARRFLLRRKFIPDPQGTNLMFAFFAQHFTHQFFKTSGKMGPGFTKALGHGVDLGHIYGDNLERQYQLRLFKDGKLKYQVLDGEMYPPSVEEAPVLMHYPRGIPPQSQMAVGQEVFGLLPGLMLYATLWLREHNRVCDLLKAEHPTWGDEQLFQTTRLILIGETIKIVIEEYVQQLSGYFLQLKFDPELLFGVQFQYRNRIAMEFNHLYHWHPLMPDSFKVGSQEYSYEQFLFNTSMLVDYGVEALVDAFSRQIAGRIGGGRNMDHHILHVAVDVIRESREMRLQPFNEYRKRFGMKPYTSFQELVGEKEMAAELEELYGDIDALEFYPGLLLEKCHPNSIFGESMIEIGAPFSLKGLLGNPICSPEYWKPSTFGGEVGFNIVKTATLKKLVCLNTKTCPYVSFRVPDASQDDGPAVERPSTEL
pIC50: −log10 of the molar value.
Label YES when pIC50 >= 6; otherwise NO.

Worked examples follow.
INSERT INTO results (querysmiles, category) VALUES
  ('CS(=O)(=O)c1ccc(-c2cnn(-c3ccc(Cl)cc3)c(=O)c2-c2ccc(F)cc2)cc1', 'NO'),
  ('CC(C)(O)CCOc1c(-c2ccc(S(C)(=O)=O)cc2)cnn(-c2ccc(F)c(F)c2)c1=O', 'YES'),
  ('NS(=O)(=O)c1ccc(-c2cnn(-c3ccc(F)c(F)c3)c(=O)c2-c2ccc(F)cc2)cc1', 'YES'),
  ('CS(=O)(=O)c1ccc(-c2cnn(-c3ccc(F)c(F)c3)c(=O)c2Oc2ccc(F)cc2)cc1', 'NO'),
  ('CS(=O)(=O)c1ccc(-c2cnn(-c3ccc(F)c(Cl)c3)c(=O)c2-c2ccc(F)cc2)cc1', 'NO');

Request: In plain terms: is recorded pIC50 at least 6 for NS(=O)(=O)c1ccc(-c2cnn(Cc3ccc(F)c(F)c3F)c(=O)c2-c2ccc(F)cc2)cc1 ?
Response: NO

Request: Please give the result for CS(=O)(=O)c1ccc(-c2cnn(-c3ccc(Cl)s3)c(=O)c2-c2ccc(Cl)cc2)cc1 too.
Response: YES

###

tested on: carrageenan induced paw edema; experiment: Carrageenan induced paw edema (CPE) in rats; type: in vivo; settings: 10 mpk oral, rat, 3 hours after carrageenan; read-out: CPE % Inhib. @ 10 mpk
measuredQuantity: inhibition in vivo at 10 mg/kg (%)
Answer with a number only, understood to be in %.

// below: answered compounds
INSERT INTO assay_data (querysmiles, datavalue) VALUES
  ('CS(=O)(=O)c1ccc(-c2cnn(-c3ccc(F)c(F)c3)c(=O)c2-c2ccc(F)cc2)cc1', 27),
  ('CS(=O)(=O)c1ccc(-c2cnn(-c3ccc(F)c(F)c3)c(=O)c2Oc2ccc(F)cc2)cc1', 13),
  ('NS(=O)(=O)c1ccc(-c2cnn(-c3ccc(F)c(F)c3)c(=O)c2-c2ccc(F)cc2)cc1', 41),
  ('CC(C)COc1c(-c2ccc(S(C)(=O)=O)cc2)cnn(-c2ccc(F)cc2)c1=O', 17),
  ('NS(=O)(=O)c1ccc(-c2cnn(CC(F)(F)F)c(=O)c2-c2ccc(Cl)cc2)cc1', 45.5);

Request: What does the record list as inhibition in vivo at 10 mg/kg for NS(=O)(=O)c1ccc(-c2cnn(CC(F)(F)F)c(=O)c2-c2ccc(F)cc2)cc1 ?
Response: 40.3

Request: Please give the result for CC(C)(C)COc1c(-c2ccc(S(C)(=O)=O)cc2)cnn(CC(F)(F)F)c1=O too.
Response: 28

Request: Please give the result for CS(=O)(=O)c1ccc(-c2cnn(CC(F)(F)F)c(=O)c2-c2ccc(F)c(Cl)c2)cc1 too.
Response: 30

Request: Please give the result for NS(=O)(=O)c1ccc(-c2cnn(CC(F)(F)F)c(=O)c2-c2ccc(Cl)c(F)c2)cc1 too.
Response: 28.5

Request: Please give the result for CC(C)COc1c(-c2ccc(S(N)(=O)=O)cc2)cnn(CC(F)(F)F)c1=O too.
Response: 23

Request: Please give the result for CS(=O)(=O)c1ccc(-c2cnn(-c3ccc(Cl)c(F)c3)c(=O)c2-c2ccc(F)cc2)cc1 too.
Response: 28

###

Overview of recorded IC50 for various molecules
target: human amnionic whole cell cyclooxygenase-2 (WISH cells) (Homo sapiens); construct: endogenous in cells; assay: IL-1β induced PGE2 production in WISH cells; details: read-out: Wish IC50 (parenthetical value)
Sequence (P35354 18-604): as the sequence (P35354 18-604) above
Answer with a number only, understood to be in µM.

Request: What does the record list as IC50 for COc1ccc(Oc2c(-c3ccc(S(C)(=O)=O)cc3)cnn(-c3cccc(Cl)c3)c2=O)cc1 [Example 345] ?
Response: 0.03

Request: Please give the result for COC(Cn1ncc(-c2ccc(S(C)(=O)=O)cc2)c(-c2ccc(F)cc2)c1=O)c1ccccc1 (stereo not drawn) [Example 442] too.
Response: 0.42

Request: Please give the result for CS(=O)(=O)c1ccc(-c2cnn(-c3ccc(F)c(Cl)c3)c(=O)c2C2CCCCC2)cc1 [Example 246] too.
Response: 0.02

Request: Please give the result for CS(=O)(=O)c1ccc(-c2cnn(-c3ccc(F)cc3)c(=O)c2COc2ccc(F)cc2)cc1 [Example 194] too.
Response: 0.069

Request: Please give the result for CS(=O)(=O)c1ccc(-c2cnn(C3CCCC3)c(=O)c2-c2ccc(F)cc2)cc1 [Example 121] too.
Response: 0.041

###

measuredQuantity: melting point

// below: answered compounds
INSERT INTO results (compound, measuredquantity, datavalue) VALUES
  ('Cc1ccc(-c2c(-c3ccc(S(C)(=O)=O)cc3)cnn(-c3ccc(F)c(F)c3)c2=O)cc1F', 'melting point', '204 to 206 °C'),
  ('CS(=O)(=O)c1ccc(-c2cnn(-c3ccccc3)c(=O)c2-c2ccc(F)cc2)cc1', 'melting point', '219 to 220 °C'),
  ('CC(C)CCOc1c(-c2ccc(S(N)(=O)=O)cc2)cnn(-c2ccc(F)c(F)c2)c1=O', 'melting point', '149 to 151 °C'),
  ('CS(=O)(=O)c1ccc(-c2cnn(-c3cccc(Br)c3)c(=O)c2-c2ccc(F)cc2)cc1', 'melting point', '210 to 212 °C'),
  ('CS(=O)(=O)c1ccc(-c2cnn(-c3cccc(Cl)c3)c(=O)c2Oc2ccccc2)cc1', 'melting point', '205 to 207 °C'),
  ('Cc1cc(-c2c(-c3ccc(S(N)(=O)=O)cc3)cnn(-c3ccc(F)c(F)c3)c2=O)ccc1F', 'melting point', '243 to 245 °C');

Request: What does the record list as melting point for CC(C)CCc1c(-c2ccc(S(C)(=O)=O)c(F)c2)cnn(-c2ccc(F)c(F)c2)c1=O ?
Response: 119 to 121 °C

Request: Please give the result for CC(C)(O)CCOc1c(-c2ccc(S(C)(=O)=O)cc2)cnn(-c2ccc(F)cc2)c1=O too.
Response: 133 to 134 °C

Request: Please give the result for CS(=O)(=O)c1ccc(-c2cnn(-c3ccc(F)c(F)c3)c(=O)c2OCCCCO)cc1 too.
Response: 110 to 113 °C
